The reported measurements were obtained from PubChem BioAssay AID1918944.

Test system: 786-0 complex spheroid viability
Experiment: Anticancer human tumor 786-0 cell line growth inhibition; active = viability on the fitted dose curve at most 10% of control; inactive = the rest;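 also: spheroids exposed to agents for seven days before readout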
Settings: second compound 3.16 µM; first compound 0.1 µM
Outcome (select one): 1 (active), -1 (inactive)

Known results for molecules:
molecule	group
COc1cc(Nc2ncc3c(n2)-c2ccc(Cl)cc2C(c2c(F)cccc2OC)=NC3)ccc1C(=O)O + NC1CCC(NC2CC2c2ccccc2)CC1	-1
CC(C)CC(NC(=O)C(Cc1ccccc1)NC(=O)c1cnccn1)B(O)O (configuration not stated) + NC1CCC(NC2CC2c2ccccc2)CC1	1

Asked: Short answer needed: outcome of this test for CC1COCCN1c1cc(C2(S(C)(=N)=O)CC2)nc(-c2ccnc3[nH]ccc23)n1 (configuration not stated) + NC1CC1c1ccc(-c2cccc(O)c2)cc1 ?
Given back: -1

Asked: Returns: the outcome recorded for CC(C)c1c(-c2ccccc2)nc2c(C#N)c[nH]n2c1=O + NC1CC1c1ccc(-c2cccc(O)c2)cc1 in this assay.
Given back: -1

----------
System: 786-0 complex spheroid viability
Experiment: Anticancer human tumor 786-0 cell line growth inhibition;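 also: spheroids exposed to agents for seven days before readout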
Conditions: second compound 10 µM; first compound 1 µM; hits give low values
readout label: viability, T/C (%)
Write down the numeric answer in % and omit the unit.

Some compounds with recorded viability, T/C:
compound	viability, T/C (%)
COc1ccc([C@@H](O)c2cc(-c3ncnc4cc(N5CCOCC5)ccc34)c(F)cc2Cl)nn1 + NC1CCC(NC2CC2c2ccccc2)CC1	81.6
COc1cc(Nc2ncc3c(n2)-c2ccc(Cl)cc2C(c2c(F)cccc2OC)=NC3)ccc1C(=O)O + NC1CC1c1ccc(-c2cccc(O)c2)cc1	49.4
CC1COCCN1c1cc(-c2ccnn2C)c2ccnc(-c3ccn[nH]3)c2n1 (stereo not drawn) + NC1CC1c1ccc(-c2cccc(O)c2)cc1	19.6

Asked: Dear colleague, I am looking for the recorded viability, T/C of the following compound: CC(C)c1c(-c2ccccc2)nc2c(C#N)c[nH]n2c1=O + NC1CCC(NC2CC2c2ccccc2)CC1
Given back: 98.8

Asked: Fill in the blank: the reported viability, T/C of O=C(c1cc(Cc2n[nH]c(=O)c3ccccc23)ccc1F)N1CCN(C(=O)C2CC2)CC1 + NC1CCC(NC2CC2c2ccccc2)CC1 is ____.
Given back: 81.7

Asked: Form field: reported viability, T/C of CC1COCCN1c1cc(C2(S(C)(=N)=O)CC2)nc(-c2ccnc3[nH]ccc23)n1 (stereo not drawn) + NC1CCC(NC2CC2c2ccccc2)CC1
Given back: 20.8

Asked: Requested field: viability, T/C. Item: O=C(C=Cn1cnc(-c2cc(C(F)(F)F)cc(C(F)(F)F)c2)n1)NNc1cnccn1 + NC1CCC(NC2CC2c2ccccc2)CC1
Given back: 16.9

Asked: Give the measured viability, T/C of CC1(C)CCC(CN2CCN(c3ccc(C(=O)NS(=O)(=O)c4ccc(NCC5CCOCC5)c([N+](=O)[O-])c4)c(Oc4cnc5[nH]ccc5c4)c3)CC2)=C(c2ccc(Cl)cc2)C1 + NC1CCC(NC2CC2c2ccccc2)CC1 .
Given back: 74.1

Asked: Please give the measured viability, T/C for this compound: Nc1ncn(C2CC(O)C(CO)O2)c(=O)n1 (stereo not drawn) + NC1CC1c1ccc(-c2cccc(O)c2)cc1
Given back: 72.9

Asked: Which viability, T/C value is on record for O=C(c1cc(Cc2n[nH]c(=O)c3ccccc23)ccc1F)N1CCN(C(=O)C2CC2)CC1 + NC1CC1c1ccc(-c2cccc(O)c2)cc1 ?
Given back: 90.7

Asked: Query: viability, T/C; subject: Nc1ncn(C2CC(O)C(CO)O2)c(=O)n1 (stereo not drawn) + NC1CCC(NC2CC2c2ccccc2)CC1
Given back: 44.6

Asked: Entry under review: CC1COCCN1c1cc(-c2ccnn2C)c2ccnc(-c3ccn[nH]3)c2n1 (stereo not drawn) + NC1CCC(NC2CC2c2ccccc2)CC1 . Reported viability, T/C?
Given back: 12

Asked: Can you share its viability, T/C? I mean this compound: COc1cc(Nc2ncc3c(n2)-c2ccc(Cl)cc2C(c2c(F)cccc2OC)=NC3)ccc1C(=O)O + NC1CCC(NC2CC2c2ccccc2)CC1
Given back: 39.7
